Where do these numbers come from? They come from patent US9227962B2.

protocol-summary: solubility in buffer solution, HPLC
Format: physicochemical
particulars: aqueous buffer, kinetic from dmso stock; buffer solution pH 7.4; read-out: solubility pH 7.4
endpoint: solubility (µg/mL)
Dear colleague, please return just the value in µg/mL, with no unit written.

In the examples that follow, each entry is paired with its recorded solubility.
CCN(CC)CCNC(=O)c1c(C)[nH]c(/C=C2\C(=O)Nc3ccc(C4CCN(c5ccccc5)CC4)cc32)c1C ... 11
CCN(CC)CCNC(=O)c1c(C)[nH]c(/C=C2\C(=O)Nc3ccc(-c4nnc(-c5ccccc5)o4)cc32)c1C ... 61

State its solubility: CCN(CC)CCNC(=O)c1c(C)[nH]c(/C=C2\C(=O)Nc3ccc(-c4cc(-c5ccccc5)nn4C)cc32)c1C
0.5

Note solubility for the molecule shown: CCN(CC)CCNC(=O)c1c(C)[nH]c(/C=C2\C(=O)Nc3ccc(C4CCN(c5ncccn5)CC4)cc32)c1C
0.4
